Test system: Diploider Roggen Sorte Gibrid 340/65
Experiment: Field trial of gametocidal activity, diploid rye Gibrid 340/65
Details: Gibrid 340/65 (text: 312/65); 1% aqueous emulsion, 10 kg/ha, V. and VI. periods
measure: Anzahl von Körnern der Ähre bei freier Bestäubung

Given "CCC(CO)(CO)CO" , state its recorded Anzahl von Körnern der Ähre bei freier Bestäubung.
53,2

Given "O=C(COc1ccc(F)cc1)OCCCl" , state its recorded Anzahl von Körnern der Ähre bei freier Bestäubung.
45,6

----------
Each record here notes measured response vs control in vivo at 10000 g/ha.
Test system: Diploider Roggen Sorte Chulpan
Assay: Field trial of gametocidal activity, diploid rye Chulpan
Assay type: in vivo
Conditions: read-out: Prozentsatz des Ansetzens bei freier Bestäubung, Chulpan; single compounds, 1% aqueous emulsion, 10 kg/ha; control = 100
Lab book: enter the figure in %, no units written.

Known results for molecules:
>  <molecule>
OCC(O)CSc1cccc(Cl)c1 (centres unmarked)

>  <value units>
%

>  <assay value>
91.9

$$$$
>  <molecule>
O=[N+]([O-])c1ccc(OCC(O)CO)cc1 (centres unmarked)

>  <value units>
%

>  <assay value>
91.2

$$$$
>  <molecule>
ClCC1CO1 (centres unmarked)

>  <value units>
%

>  <assay value>
86.2

$$$$
>  <molecule>
O=C(O)c1ccccc1F

>  <value units>
%

>  <assay value>
95.2

$$$$
>  <molecule>
OCCCl

>  <value units>
%

>  <assay value>
88.5

$$$$
>  <molecule>
CC(C)OC(=S)S

>  <value units>
%

>  <assay value>
91.4

$$$$
>  <molecule>
OCC(O)COc1ccc(Cl)cc1 (centres unmarked)

>  <value units>
%

>  <assay value>
83.2

$$$$
>  <molecule>
CCCCOC(=S)S

>  <value units>
%

>  <assay value>
84.7

$$$$

Given "OCCOc1ccc(F)cc1" , state its recorded response vs control in vivo at 10000 g/ha.
85

Given OCC(O)CSc1ccccc1F (centres unmarked) , state its recorded response vs control in vivo at 10000 g/ha.
94.2

Given "Nc1ccc(O)c(C(=O)O)c1" , state its recorded response vs control in vivo at 10000 g/ha.
92.8

----------
Test system: Winterweizens Sorte Mironovskaya 808
Experiment: Field trial of gametocidal activity (anther sterilisation), winter wheat
Format: in vivo, Weizen
Conditions: 2% aqueous emulsion, 20 kg/ha, V. or VI. period of organogenesis
measure: Anzahl von Körnern der Ähre bei freier Bestäubung

Known results for compounds:
>  <compound>
OCC(O)COc1ccc(Cl)cc1Cl (centres unmarked)

>  <assay value>
35,0

$$$$
>  <compound>
O=C(COc1ccc(F)cc1)OCCCl

>  <assay value>
30,4

$$$$
>  <compound>
CC(C)OC(=S)S

>  <assay value>
35,2

$$$$

Given OCC(O)CSc1ccc(F)cc1 (centres unmarked) , state its recorded Anzahl von Körnern der Ähre bei freier Bestäubung.
38,2

Given "O=C(O)c1ccccc1F" , state its recorded Anzahl von Körnern der Ähre bei freier Bestäubung.
36,2

Given OCC(O)CSc1cccc(Cl)c1 (centres unmarked) , state its recorded Anzahl von Körnern der Ähre bei freier Bestäubung.
32,7

Given OCC(O)COc1ccc(F)cc1 (centres unmarked) , state its recorded Anzahl von Körnern der Ähre bei freier Bestäubung.
30,6

Given OCC(O)COc1ccc(Cl)cc1 (centres unmarked) , state its recorded Anzahl von Körnern der Ähre bei freier Bestäubung.
28,6

Given "OCCOc1ccc(F)cc1" , state its recorded Anzahl von Körnern der Ähre bei freier Bestäubung.
27,4

Given O=[N+]([O-])c1ccc(OCC(O)CO)cc1 (centres unmarked) , state its recorded Anzahl von Körnern der Ähre bei freier Bestäubung.
34,0

Given OCC(O)CSc1ccccc1F (centres unmarked) , state its recorded Anzahl von Körnern der Ähre bei freier Bestäubung.
36,7
